Molecular target: T1, biotin-ahx-pSer68-PLMcyt (phosphoserine at 68 (pS in the printed letters); biotin with ahx-linker (printed as biotin-ahx-pSer68-PLMcyt))
T1 construct: cytoplasmic part of phospholemman (PLM, FXYD1), printed as [residues removed]; Immobilised on SA chips (SPR) and used as overlay probe on the peptide arrays; also called biotin-pSer68-PLM; biotin-pSer68-PLMcyt; source: synthetic peptide (Genscript, >80% purity)
T1 peptide: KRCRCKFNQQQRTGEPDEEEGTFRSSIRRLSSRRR
Assay: SPR
Details: both partners purified
Non-standard residues stand in square brackets, D forms with d. No end group written: not given here. *: point of attachment. NMePro = CN1CCC[C@H]1C(=O)*
quantity_measured: pKd
In simple prose, pKd is minus the logarithm base ten of a concentration in moles per litre.

Record request: pKd value, item [NMePro]YKEIEQLIELANYQVRKKRRQRRR (also called TAT-conjugated NOPT; cell-permeable NOPT; source: synthetic peptide (Genscript, >80% purity)) [NOPT-TAT]
6.89

Reference source for all entries: paper PMC8215385
